B1: KCNA3 (parent)
chain: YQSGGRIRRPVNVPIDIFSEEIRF

variants of: B1; test: protein stability index of a GFP-peptide fusion (GPS, HEK-293T) (PSI 1-6); higher = more stable; settings: c terminus: a fixed tail appended;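 note: lentivirally expressed fusions sorted by FACS into six bins by GFP to DsRed ratio, PSI derived from sequencing read proportions per bin multiplied by bin number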
Met means recorded protein stability index is 2 or above; Not met means it is below 2.

mutation-key	group
N12G	Not met
F18T	Met
G4L	Met
R23M	Not met
S3D	Met

Request: # bool: protein stability index of G5Y >= 2
Result: Not met

Request: # bool: protein stability index of N12S >= 2
Result: Met

Request: # bool: protein stability index of R6K >= 2
Result: Not met

Request: # bool: protein stability index of R9H >= 2
Result: Met
